Molecular target: Small ubiquitin-related modifier 1 (Homo sapiens, UniProt P63165)
Sequence (P63165 whole entry): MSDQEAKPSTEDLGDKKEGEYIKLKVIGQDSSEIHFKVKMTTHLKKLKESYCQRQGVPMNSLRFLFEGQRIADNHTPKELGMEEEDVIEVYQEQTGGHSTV
Test: inhibitors of SUMO1 partner interactions, dose response, biochemical, FRET (AID 624383)
Type: functional
Details: read-out: IC50_Mean
Activity calls are given as the source filed them.
Pick one and only one: class 1 (active), class 0 (inactive)

Consider the worked cases shown below.
compound=CN(C)CCNC(=O)c1cccc(-c2cnc3c(NC=O)cc(-c4cccs4)cn23)c1 target="Small ubiquitin-related modifier 1 (Homo sapiens, UniProt P63165)" assigned_label="class 1"
compound=O=C(N/N=C/c1ccncc1)c1cc2c(ccc3ccccc32)o1 target="Small ubiquitin-related modifier 1 (Homo sapiens, UniProt P63165)" assigned_label="class 0"

Q: Name the outcome recorded for Cc1cc(N)c2cc(NC(=O)/C=C/c3ccccc3Cl)ccc2n1 in the assay.
Ans: class 1

Q: Name the outcome recorded for CC(CC(=O)OCC(=O)Nc1ccc2[nH]c(O)nc2c1)c1ccccc1 (stereo unspecified) in the assay.
Ans: class 0

Q: Name the outcome recorded for O=S(=O)(O)c1cc(O)c2ccc(Nc3ccccc3)cc2c1 in the assay.
Ans: class 1

Q: Name the outcome recorded for CCC(CO)Oc1cc(NC(=O)c2ccccc2F)c2ncn(C(C)C)c2c1 (stereo unspecified) in the assay.
Ans: class 1

----------
Test: cells
Assay type: functional
Activity calls are given as the source filed them.
Measurement Label: IC50

Examples from the recorded data:
record_smiles=O=C(C/C=N\OCc1ccc([N+](=O)[O-])cc1)Nc1ccc(F)cc1F result="33 µM (active)"
record_smiles=O=C(Nc1nnc(-c2ccc(Cl)cc2)o1)c1nc2ccccc2s1 result="1.5 µM (active)"

Q: Assign IC50 to the following record: Cc1cc(C)n2nc(N)c(N=Nc3ccccc3)c2n1
Ans: 5.78 µM (active)

Q: Assign IC50 to the following record: O=C(COc1ccccc1)Nc1nnc(-c2ccc(Cl)cc2)o1
Ans: 34.6 µM (active)

----------
EC50 reference
Molecular target: Heat shock factor protein 1 (Mus musculus, UniProt P38532)
Sequence (P38532 whole entry): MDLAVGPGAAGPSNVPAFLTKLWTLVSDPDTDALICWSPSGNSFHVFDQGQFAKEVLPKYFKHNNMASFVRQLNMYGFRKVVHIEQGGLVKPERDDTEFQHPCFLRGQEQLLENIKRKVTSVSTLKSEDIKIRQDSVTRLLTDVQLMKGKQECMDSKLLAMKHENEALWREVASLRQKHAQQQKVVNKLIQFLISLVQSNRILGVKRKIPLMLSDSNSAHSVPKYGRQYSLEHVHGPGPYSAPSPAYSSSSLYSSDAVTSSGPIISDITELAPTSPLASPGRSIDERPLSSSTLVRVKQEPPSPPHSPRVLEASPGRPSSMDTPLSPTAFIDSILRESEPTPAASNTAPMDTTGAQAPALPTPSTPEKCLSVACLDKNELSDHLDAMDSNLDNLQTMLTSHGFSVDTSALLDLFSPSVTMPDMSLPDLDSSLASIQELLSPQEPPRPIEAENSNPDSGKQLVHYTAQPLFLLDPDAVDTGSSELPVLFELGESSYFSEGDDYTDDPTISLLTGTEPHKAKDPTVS
Assay: inhibition of MG132-induced HSE-luciferase signal, confirmation, cell-based, NIH3T3, luminescence, dose retest (AID 2382);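 note: NIH3T3 fibroblasts with HSF1-driven luciferase reporter stressed by proteasome inhibitor MG132; luminescence from HSF1-driven luciferase expression after 8 hours of MG132 stress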
Format: functional
Activity calls are given as the source filed them.

Examples from the recorded data:
molecule="CC(=O)NC1=NN(C(C)=O)C(c2ccccn2)S1 (stereo not drawn)" measurement_label=EC50 result="> 195 µM (not active)"
molecule="O=C(NCCCn1ccnc1)C(=O)NCC1OCCN1S(=O)(=O)c1cc(F)ccc1F (stereo not drawn)" measurement_label=EC50 result="128 µM (active)"
molecule=Cc1ccc2[nH]c(O)c(N=Nc3ccccc3C)c2c1 measurement_label=EC50 result="> 195 µM (not active)"
molecule=C=CCNc1nnnc2c1sc1nc(N3CCOCC3)c3c(c12)CCCC3 measurement_label=EC50 result="> 195 µM (not active)"

Q: Assign EC50 to the following record: COc1ccc(-n2c(S)nnc2COc2cccc(C)c2)cc1
Ans: > 195 µM (not active)

Q: Assign EC50 to the following record: O=S(=O)(c1ccccc1)c1c[nH]c(O)n1
Ans: > 195 µM (not active)

Q: Assign EC50 to the following record: Cc1ccc(C2=NCCn3c2c2ccc(C(F)(F)F)cc2[n+]3[O-])cc1
Ans: > 195 µM (not active)

Q: Assign EC50 to the following record: NNC(=O)CNC(=O)CNS(=O)(=O)c1ccccc1
Ans: > 195 µM (not active)

Q: Assign EC50 to the following record: Cc1cc(NC(=O)c2ccc3nc(C)sc3c2)no1
Ans: 0.167 µM (active)

Q: Assign EC50 to the following record: COc1ccc(/C=N/Nc2nc(C)cc(O)n2)cc1OC
Ans: 29.8 µM (active)

Q: Assign EC50 to the following record: Cc1cc(C)c(C#N)c(SCc2nnc(-c3ccccc3)o2)n1
Ans: < 0.16 µM (active)
